conditions: 1 μM; Heat-inactivated s9
QUANTITY MEASURED: Percentage of Initial Parent Administration (Mean ± Std Dev): parent compound (%)

COMPOUND	UNIT LABEL	RESULT NUMBER
CC(C)(C)c1ccc(OP(=O)(Oc2ccccc2)Oc2ccccc2)cc1 [4tBPDPP, 4-tert-butylphenyl diphenyl phosphate]	%	81
O=P(Oc1ccccc1)(Oc1ccccc1)Oc1ccccc1 [TPHP, triphenyl phosphate, reference compound]	%	88
CC(C)c1ccccc1OP(=O)(Oc1ccccc1)Oc1ccccc1 [2IPPDPP, 2-isopropylphenyl diphenyl phosphate]	%	101
CC(C)c1ccc(OP(=O)(Oc2ccccc2)Oc2ccccc2)cc1 [4IPPDPP, 4-isopropylphenyl diphenyl phosphate]	%	82

Ref: paper PMC7508416
